Quick reference for EC50 among some compounds
Tested on: Human immunodeficiency virus 2
experiment: Antiviral activity against HIV-2 ROD infected in human MT4 cells assessed as protection against virus-induced cytopathogenicity after 5 days by MTT assay
Type: functional, organism-based
condition: Human immunodeficiency virus 2, ISOLATE ROD, MT4, 120 h

- compound_string: "COc1ccc(CSc2nc(C(=O)c3ccc(F)c(F)c3)c(C)c(=O)[nH]2)cc1"
  EC50: "> 127 µM"
- compound_string: "COc1ccc(CSc2nc(C(=O)c3ccc(C(C)(C)C)cc3)c(C)c(=O)[nH]2)cc1"
  EC50: "> 126 µM"
- compound_string: "COc1ccc(CSc2nc(C(=O)c3ccccc3F)c(C)c(=O)[nH]2)cc1"
  EC50: "> 175 µM"
- compound_string: "COc1ccc(CSc2nc(C(=O)c3cc(F)cc(F)c3)c(C)c(=O)[nH]2)cc1"
  EC50: "> 86.9 µM"
- compound_string: "COc1ccc(CSc2nc(C(=O)c3ccc(F)cc3)c(C(C)C)c(=O)[nH]2)cc1"
  EC50: "> 135 µM"
- compound_string: "CCc1c(C(=O)c2cccc(F)c2)nc(SCc2ccc(OC)cc2)[nH]c1=O"
  EC50: "> 167 µM"
- compound_string: "COc1ccc(CSc2nc(C(=O)c3cccc(F)c3)c(C)c(=O)[nH]2)cc1"
  EC50: "> 225 µM"
- compound_string: "COc1ccc(CSc2nc(C(=O)c3ccccc3F)c(C(C)C)c(=O)[nH]2)cc1"
  EC50: "> 38.2 µM"
- compound_string: "CCc1c(C(=O)c2cccc(Br)c2)nc(SCc2ccc(OC)cc2)[nH]c1=O"
  EC50: "> 98.9 µM"
- compound_string: "COc1ccc(CSc2nc(C(=O)c3cccc(Br)c3)c(C)c(=O)[nH]2)cc1"
  EC50: "> 201 µM"

---

experiment: Cytotoxicity against human MT4 cells assessed as cell viability after 5 days by MTT assay
Type: cell-based
Quick reference for CC50 at 120 h among some molecules

- compound_string: "COc1ccc(CSc2nc(C(=O)c3ccc(Cl)cc3)c(C)c(=O)[nH]2)cc1"
  unit_name: "µM"
  comparative_sign: "≥"
  CC50 at 120 h: 151
- compound_string: "COc1ccc(CSc2nc(C(=O)c3cc(F)cc(F)c3)c(C)c(=O)[nH]2)cc1"
  unit_name: "µM"
  comparative_sign: "="
  CC50 at 120 h: 86.9
- compound_string: "O=c1[nH]cnc2c1ncn2[C@H]1CC[C@@H](CO)O1"
  unit_name: "µM"
  comparative_sign: "="
  CC50 at 120 h: 212
- compound_string: "COc1ccc(CSc2nc(C(=O)c3cccc(F)c3)c(C)c(=O)[nH]2)cc1"
  unit_name: "µM"
  comparative_sign: "="
  CC50 at 120 h: 225
- compound_string: "COc1ccc(CSc2nc(C(=O)c3ccc(C(C)(C)C)cc3)c(C)c(=O)[nH]2)cc1"
  unit_name: "µM"
  comparative_sign: "="
  CC50 at 120 h: 126
- compound_string: "COc1ccc(CSc2nc(C(=O)c3ccc(Br)cc3)c(C(C)C)c(=O)[nH]2)cc1"
  unit_name: "µM"
  comparative_sign: "="
  CC50 at 120 h: 42.5
- compound_string: "O=C1Nc2ccc(Cl)cc2[C@@](C#CC2CC2)(C(F)(F)F)O1"
  unit_name: "µM"
  comparative_sign: "="
  CC50 at 120 h: 6.34
- compound_string: "Cc1ccnc2c1NC(=O)c1cccnc1N2C1CC1"
  unit_name: "µM"
  comparative_sign: "="
  CC50 at 120 h: 15
- compound_string: "COc1ccc(CSc2nc(C(=O)c3cccc(F)c3)c(C(C)C)c(=O)[nH]2)cc1"
  unit_name: "µM"
  comparative_sign: "="
  CC50 at 120 h: 132
- compound_string: "Nc1ccn([C@H]2CC[C@@H](CO)O2)c(=O)n1"
  unit_name: "µM"
  comparative_sign: "="
  CC50 at 120 h: 94.7
- compound_string: "COc1ccc(CSc2nc(C(=O)c3ccc(Br)cc3)c(C)c(=O)[nH]2)cc1"
  unit_name: "µM"
  comparative_sign: "="
  CC50 at 120 h: 252
- compound_string: "CCc1c(C(=O)c2cccc(F)c2)nc(SCc2ccc(OC)cc2)[nH]c1=O"
  unit_name: "µM"
  comparative_sign: "="
  CC50 at 120 h: 167
- compound_string: "CCc1c(C(=O)c2cccc(Br)c2)nc(SCc2ccc(OC)cc2)[nH]c1=O"
  unit_name: "µM"
  comparative_sign: "="
  CC50 at 120 h: 98.9
- compound_string: "COc1ccc(CSc2nc(C(=O)c3ccc(F)c(F)c3)c(C)c(=O)[nH]2)cc1"
  unit_name: "µM"
  comparative_sign: "="
  CC50 at 120 h: 127
- compound_string: "COc1ccc(CSc2nc(C(=O)c3ccc(F)cc3)c(C(C)C)c(=O)[nH]2)cc1"
  unit_name: "µM"
  comparative_sign: "="
  CC50 at 120 h: 135
- compound_string: "COc1ccc(CSc2nc(C(=O)c3cccc(Cl)c3)c(C)c(=O)[nH]2)cc1"
  unit_name: "µM"
  comparative_sign: "="
  CC50 at 120 h: 152
- compound_string: "CC(C)Nc1cccnc1N1CCN(C(=O)c2cc3cc(NS(C)(=O)=O)ccc3[nH]2)CC1"
  unit_name: "µM"
  comparative_sign: "="
  CC50 at 120 h: 36.2
- compound_string: "COc1ccc(CSc2nc(C(=O)c3ccccc3F)c(C(C)C)c(=O)[nH]2)cc1"
  unit_name: "µM"
  comparative_sign: "="
  CC50 at 120 h: 38.2
- compound_string: "COc1ccc(CSc2nc(C(=O)c3ccc(F)cc3)c(C)c(=O)[nH]2)cc1"
  unit_name: "µM"
  comparative_sign: "≥"
  CC50 at 120 h: 325
- compound_string: "COc1ccc(CSc2nc(C(=O)c3cccc(Br)c3)c(C)c(=O)[nH]2)cc1"
  unit_name: "µM"
  comparative_sign: "="
  CC50 at 120 h: 201
- compound_string: "CCc1c(C(=O)c2cc(F)cc(F)c2)nc(SCc2ccc(OC)cc2)[nH]c1=O"
  unit_name: "µM"
  comparative_sign: "="
  CC50 at 120 h: 139
- compound_string: "COc1ccc(CSc2nc(C(=O)c3ccccc3F)c(C)c(=O)[nH]2)cc1"
  unit_name: "µM"
  comparative_sign: "="
  CC50 at 120 h: 175
